# assay-explanation: label from the status in PepcDB records;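 also: failed if final PepcDB status was selected cloned or expressed and not failed if soluble or beyond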
measurement-name: protein production

[[record]]
record_sequence = "MTENSRKTATELFEFLDGLGISHTTKQHEPVFTVAESQSLRDLIPGGHTKNLFVKDKKDQYFVLTVEENAVVDLKSVHKTIGAASRVSFGRPEKMLEYLGVVPGSVTVFGAINDTARQVTFVLDSDLLENELVNGHPLSNDQTTTIASKDLIRFLEATGHAPLVLKVSE"
measurement_name = "protein production"
observed_result = "not failed"

[[record]]
record_sequence = "MGTPVVWEGNIGNPPEHKSFPNGNNEPRQLLRLNVMFDNSIPDGSGGYKDRGGFWANVEWWHPDAERFAQLFSKGMRVVVTGRAIMDTWKDKETGDDVWALKVEANRVAILPHRVNQVTMTQSNNTGQRQNAQQNNRPERQQNSAQQPGQHTDDLSHYGNGFDDDIPVLEHHHHHH"
measurement_name = "protein production"
observed_result = "not failed"

[[record]]
record_sequence = "MSDKGTDTKDKEKKAGKKKTASDRIEVRQSGVHGKGVYAIGQIAEGERVIEYKGEHISWKEALKRHPHDPNDPNHTFYFSLDDGDVIDAKFGGNRARWINHACDPNCEAREKKGRVFIHALRDIEPGEELFYDYGLVIDARYTKKLKQEYECRCGSPKCRGTMLAPKDKK"
measurement_name = "protein production"
observed_result = "failed"

[[record]]
record_sequence = "GSESFDILTDPAQAKEVGTALGIFHQLLSDLSPSQLVDTLPGFHHTPIYLQQYQRALAQNPKLTGSLGPEINHCQRVIKTWLDQCGVLETAKAQGQLPLRLMHGDPKVNNILFDRQSGKAVSVIDLDTTKPGLIHYDLGDCLRSGCNLLGEETENWSAVEFDLDLCRAILEGYLPQCQHFLTAADYDYLCPAIVLISFELGLRFFTDYLNGDRYFKVKYPEHNLIRALVQFQLASHIQSQEDAIRRMIEDIRG"
measurement_name = "protein production"
observed_result = "failed"


---

# assay-explanation: label from the status in PepcDB records
measurement-name: protein production

[[record]]
record_sequence = "MPTPAYMSINGETQGHITKDTYSADSVGNTWQEAHVDEFLVQELDHVLTVPRDPQSGQPTGQRVHRPLVVTKVQDRSSPLLFNALVSGEKLPECLIRFYRTSVQGKQEHYYSIKLIDALLVDIQTRMNHCQDAATADRVTEEVLKFTYRAIEVTHENCGTAGNDDWRAPREA"
measurement_name = "protein production"
observed_result = "failed"

[[record]]
record_sequence = "MFKNLIWLKEVDSTQERLKEWNVSYGTALVADRQTKGRGRLGRKWLSQEGGLYFSFLLNPKEFENLLQLPLVLGLSVSEALEEITEIPFSLKWPNDVYFQEKKVSGVLCELSKDKLIVGIGINVNQREIPEEIKDRATTLYEITGKDWDRKEVLLKVLKRISENLKKFKEKSFKEFKGKIESKMLYLGEEVKLLGEGKITGKLVGLSEKGGALILTEEGIKEILSGEFSLRRS"
measurement_name = "protein production"
observed_result = "not failed"

[[record]]
record_sequence = "MTIMLTPMQTEEFRSYLTYTTKHYAEEKVKAGTWLPEDAQLLSKQVFTDLLPRGLETPHHHLWSLKLNEKDIVGWLWIHAEPEHPQQEAFIYDFGLYEPYRGKGYAKQALAALDQAARSMGIRKLSLHVFAHNQTARKLYEQTGFQETDVVMSKKL"
measurement_name = "protein production"
observed_result = "not failed"

[[record]]
record_sequence = "DNMEAVKTFNSELYSLNDYKPPISKAKMTQITKAAIKAIKFYKHVVQSVEKFIQKCKPEYKVPGLYVIDSIVRQSRHQFGQEKDVFAPRFSNNIISTFQNLYRCPGDDKSKIVRVLNLWQKNNVFKSEIIQPLLDMAAG"
measurement_name = "protein production"
observed_result = "not failed"

[[record]]
record_sequence = "MLNTFMFPGQGSQAKGMGGALFDRFADLTAQADAVLGYSIRALCVDDPRDELGRTQFTQPALYVVNALTYYAKCEDSGETPDFLAGHSLGEFNALLAAGCFDFETGLKLVARRAELMSQARDGAMAAIVNASREQIERTLDEHGLVDTAIANDNTPSQLVISGPAHEIARAEALFQHDRVRYLRLNTSGAFHSKFMRPAQQAFAAHLQSFRLADPAIPVISNVSARPYENGRVSEGLAQQIASPVRWCESIRYLLALAAERGEAIEFTELGHGDVLTRLVHTIRRQTPAPAAAATSARARPTPPGEPERPAQQTAAAPRASDSASASLGAAERVAAWNRDYPVGTRVRSSLIHDDVLETRTPATVLFGHRAAVYMKGYNGYFDLAEVTPA"
measurement_name = "protein production"
observed_result = "not failed"


GET /values?readout=protein production&item= "MVNQEKTLDVGFTHADFAALLDRYDYHFNPGDIVAGTVFSIEPKGALIDIGAKTAAYIPIQEMSINRIESPEEVLQPNETREFFILADENEEGQLTLSIRRIEYMRAWERVRQLQAEDATVRSQVFATNRGGALVRIEGLRGFIPGSHISTRVNKEELVGEELPLKFLEVDEERNRLVLSHRRALVERKMNKLEVGEVVVGTVRGIKPYGAFIDIGGVSGLLHISEISHDHIDTPHSVFNVNDQVKVMIIDLDAERGRISLSTKQLEPEPGDMVKNPQLVYEKAEEMAERYRQQLLQQQQQAAGETPEEGMEDIPEATEDDSPAPILQEALEHHHHHH"
failed

---

# assay-explanation: label from the status in PepcDB records
measurement-name: protein production

[[record]]
record_sequence = "ESELACVIALQDITLRVQETERLEKMLEHLPVCMVIMNQNDEVEQINQTGIELLGFERDEIVGNPVDLFIPQEQVESHKALLKKFFQEETVIDTRSLERDFKVKHKSGKLIEIQAVYTPVHFHN"
observed_result = "failed"

[[record]]
record_sequence = "MGSRDLISSLPDEILGKVLSLLPTKRAASTAVLSKRWNNLPALVDKLDINDAIGGPGGFPEFIDKTLALLTNSTTIKRTSLNNEFQYGESQVNTWIRSFLERGCLQLYLNAQSLYTIDTEFFTSNTLVELTITGGFSPDGLLPPGGVFFPKLKTLSLVLMTFVDSDMYELFISGCPLLEEFLLRNDEIEIPPVWNALVSSPSIKRLTIVHHFPNYREAHDGCWFRTPNLVYLDYSSYVPDWYEVDLGSLVEARLDLRSWERLRDEKAGGYGDCDSVYDDEEYPDDPILGDVTNLVTGLSNIKTLHLSPDSLEVFYFCCKSMPVFHNLLTLSFESAKKEAGQCCHFSSISLLT"
observed_result = "failed"


---

# assay-explanation: label from the status in PepcDB records
measurement-name: protein production

[[record]]
record_sequence = "MAQTQGTRRKVCYYYDGDVGNYYYGQGHPMKPHRIRMTHNLLLNYGLYRKMEIYRPHKANAEEMTKYHSDDYIKFLRSIRPDNMSEYSKQMQRFNVGEDCPVFDGLFEFCQLSTGGSVASAVKLNKQQTDIAVNWAGGLHHAKKSEASGFCYVNDIVLAILELLKYHQRVLYIDIDIHHGDGVEEAFYTTDRVMTVSFHKYGEYFPGTGDLRDIGAGKGKYYAVNYPLRDGIDDESYEAIFKPVMSKVMEMFQPSAVVLQCGSDSLSGDRLGCFNLTIKGHAKCVEFVKSFNLPMLMLGGGGYTIRNVARCWTYETAVALDTEIPNELPYNDYFEYFGPDFKLHISPSNMTNQNTNEYLEKIKQRLFENLRMLPH"
observed_result = "failed"

[[record]]
record_sequence = "MMEKIMEYLQLSDEVVDDGEAPRVEEFLGEGKSFYENFSLRGIRVNRVEPGFISCSFKVPLRLTDRDKNLANGAIANLVDEVGGALVHGEGLPMSVSVDMSIAFLSKAKLGEELEITSRLLGERGGYKGTIVVVRNKMTGEIIAEGRHSMFGRQASKL"
observed_result = "failed"


---

# assay-explanation: label from the status in PepcDB records
measurement-name: protein production

[[record]]
record_sequence = "MEGFHMVSDMCPQITGWRIYVFVVRVFKNVISPNVFELGLILADYAGSNSRIEATVDRRLAPFYEDRFVENEWKTITSFLVRKATDSVRATKHEYGILFMDRTVVVEAPPRSPPVPDFDFTPFDYILEKSAYKNVLVDVVGALVDVGGLTTDYYGLKMSFKIKDRYNEVLECEARNKQAEYLDGYFKSLGKGNFVVALSFWRLTELSNPKLASHGAISKVVANPDIPEVADIAMVVF"
observed_result = "failed"

[[record]]
record_sequence = "GQDYLDIIGRLLPVLPYNLAIIGADGQVLLMNPPMSRITGMSLRQFVMYPSDWVVQEDKAAVADAVRRYSSGRALSGEISVRLIAKPEETVILTLTGIRHLGESALMISLQESASENEIKQQMAQTTRMQAIGQLAGGVAHDFNNILTAI"
observed_result = "failed"

[[record]]
record_sequence = "MWYYFQPKRLCHNSFMIPEKLLTYTKTIFEYSHSTVYIKDKNFHYQYMNNRGLKQLQLQEKDIMGMPDKALPFGKYAHFYNSHDYSAMEEIIYFQLDDCITKNGEKIFALSHKLPLKDEDGKTHGVIGFTKFMNLHQLMNNLNSKNTFLTPNLKINVNVDDWLKTTINLSRREMEVLYYFLQGKSIKLIAPLLHITERTVIFHLNNIKSKWGCYNKEDIYTKSFEKGLKNLTIIWDLLAMRS"
observed_result = "failed"

